These measurements were taken from the nanobody polyreactivity screen of Harvey et al. (2022).

assay: yeast display, Sf9 membrane polyspecificity reagent, FACS + sequencing; frameworks hold sequencing errors
recorded-metric: polyreactivity (PSR sort gate)

Examples from the recorded data:
- input-sequence: "QVQLVESGGGLVQAGGSLRLSCAASGSTFSLYAMGWYRQAPGKERELVAAINSGTSTYYADSVKGRFTISRDNAKNTVYLQMNSLKPEDTAVYYCAADGYPLQLYNYWGQGTQVTVSS"
  result: "low polyreactivity"
- input-sequence: "QVQLVESGGGLVQAGGSLRLSCAASGSTFSYYTMGWSRQAPGKERELVAAISRGGSTNYADSVKGRFTISRDNAKNTVYLQMNSLKPEDTAVYYCAAEPGRTKRYKVRMDYWGQGTQVTVSS"
  result: "high polyreactivity"
- input-sequence: "QVQLVESGGGLVQAGGSLRLSCAASGFIFRGNAMGWYRQAPGKERELVAAISKSGGRTYYADSVKGRFTISRDNAKNTVYLQMNSLKPEDTAVYYCNVLRMGLGRESDSWGQGTQVTVSA"
  result: "high polyreactivity"
- input-sequence: "QVQLVESGGGLVQAGGSLRLSCAASGGTFNSNAMGWYRQAPGKERELVAGITSGSDTSYADSVKGRFTISRDNAKNTVYLQMNSLKPEDSAVYYCATRDYPLYGYWGQGTQVTVSS"
  result: "low polyreactivity"
- input-sequence: "QVQLVESGGGLVHAGGSLRLSCAASRRNFTRNAMGWYRQAPGKERELVAAIRRGGRTNYADSVKGRFTISRDNAKNTVYLQMNSLKPEETAVYYCNKAGWLKWAPRQYYYWGQGTQVTVSS"
  result: "high polyreactivity"
- input-sequence: "QVQLVESGGGLVQAGGSLRLSCPDSVRIFYYNTMGWYRQAPGKERQLVAAISAGGGRTYYADSVKGRFTISRDNAKNTVYFQMNRLKPEDTAVYYCAARKRAQQGTRDHDYWGQGSQVTVSS"
  result: "high polyreactivity"

Attention now turns to another entry.
Incoming: Please list polyreactivity (PSR sort gate) recorded for the sequence `QVQRVESRGGLVQAGGSLRLSCAASGSTFAVYALGWYRQAPGKERELVAAISQSGGSTNYADSVKGRFTISRDNAKNTVYLQMNSLKPEDTAVYYCNVDVSRSWAQPYTYDYWGQGTQVTVSS`
Outgoing: low polyreactivity
